- TESTED_SYSTEM: 5-hydroxytryptamine receptor 7 (Homo sapiens, UniProt P34969)
- Sequence (P34969 whole entry): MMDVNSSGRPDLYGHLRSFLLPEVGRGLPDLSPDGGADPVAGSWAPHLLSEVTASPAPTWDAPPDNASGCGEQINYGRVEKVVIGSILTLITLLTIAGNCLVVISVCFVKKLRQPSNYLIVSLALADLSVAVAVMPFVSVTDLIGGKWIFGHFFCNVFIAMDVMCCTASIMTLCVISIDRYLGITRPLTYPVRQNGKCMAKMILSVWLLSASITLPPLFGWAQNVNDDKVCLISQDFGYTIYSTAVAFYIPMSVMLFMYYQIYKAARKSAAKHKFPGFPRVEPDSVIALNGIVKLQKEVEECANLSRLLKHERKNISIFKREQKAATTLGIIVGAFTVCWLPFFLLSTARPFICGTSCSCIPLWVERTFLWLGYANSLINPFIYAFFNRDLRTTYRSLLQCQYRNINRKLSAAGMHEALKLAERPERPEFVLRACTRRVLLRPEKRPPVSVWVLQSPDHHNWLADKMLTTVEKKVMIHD
- ASSAY_REMARKS: Antagonist activity at human recombinant 5-HT7 receptor expressed in CHOK1 Hunter cell preincubated for 30 mins followed by incubation with agonist for 30 to 60 mins by hit-hunter cAMP assay based chemiluminescence analysis
- Assay type: functional, CHO-K1
Structures can show the parent of a compound that is named as a salt.
EXPERIMENTAL_ENDPOINT: IC50
Put your answer as a value accompanied by its unit after it.

Asked: API: value(readout= IC50, system= 5-hydroxytryptamine receptor 7 (Homo sapiens, UniProt P34969), query= O=C(CCCN1CCC2(CC1)C(=O)NCN2c1ccccc1)c1ccc(F)cc1 [SPIPERONE HYDROCHLORIDE] )
Given back: 310 nM

###

- TESTED_SYSTEM: UniProt:P50406
- Sequence (P50406 whole entry): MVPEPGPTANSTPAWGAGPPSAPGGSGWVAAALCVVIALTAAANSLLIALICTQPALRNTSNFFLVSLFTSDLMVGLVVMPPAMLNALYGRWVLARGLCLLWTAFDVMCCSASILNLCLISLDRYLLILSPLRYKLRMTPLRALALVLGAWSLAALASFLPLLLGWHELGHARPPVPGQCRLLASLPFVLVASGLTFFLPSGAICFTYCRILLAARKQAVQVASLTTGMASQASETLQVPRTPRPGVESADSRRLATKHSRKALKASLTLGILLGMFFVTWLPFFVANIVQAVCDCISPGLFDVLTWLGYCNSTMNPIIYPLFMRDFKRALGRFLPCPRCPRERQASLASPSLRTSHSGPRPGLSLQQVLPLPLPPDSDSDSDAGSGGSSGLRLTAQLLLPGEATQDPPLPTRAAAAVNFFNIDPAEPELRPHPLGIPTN
- ASSAY_REMARKS: biochemical
- Description: Displacement of [3H]-LSD from human 5-HT6 receptor expresssed in stable HEK cell membrane incubated for 90 mins by microbeta counting method
Attribute: log10 Ki
Reminder: these figures are log10 of reported Ki, in nM before transformation.

C#CCOc1c(OC)cc2c3c1-c1cc(NC(=O)CCC)ccc1CC3N(C)CC2 (racemic) | 2.55
COc1cc2c3c(c1OCC1CC1)-c1cc(N(C)C)ccc1CC3N(C)CC2 (racemic) | 2.52

Asked: So what does the record say about log10 Ki for CCCC(=O)Nc1ccc2c(c1)-c1c(OC)c(OC)cc3c1C(C2)N(C)CC3 (racemic) ?
Given back: 2.55

Asked: So what does the record say about log10 Ki for C#CCOc1c(OC)cc2c3c1-c1cc(NC(N)=O)ccc1CC3N(C)CC2 (racemic) ?
Given back: 2.61

Asked: So what does the record say about log10 Ki for COc1cc2c3c(c1OC)-c1cc(N(C)C)ccc1CC3N(C)CC2 (racemic) ?
Given back: 2.10

Asked: So what does the record say about log10 Ki for C=CCOc1c(OC)cc2c3c1-c1cc(N(C)C)ccc1CC3N(C)CC2 (racemic) ?
Given back: 2.01

Asked: So what does the record say about log10 Ki for C=CCOc1c(OC)cc2c3c1-c1cc(NC(=O)CCC)ccc1CC3N(C)CC2 (racemic) ?
Given back: 2.30

Asked: So what does the record say about log10 Ki for CN(C)c1ccc2c(c1)-c1cccc3c1C(C2)N(C)CC3 (racemic) ?
Given back: 3.20

Asked: So what does the record say about log10 Ki for CCCC(=O)Nc1ccc2c(c1)-c1c(OCC3CC3)c(OC)cc3c1C(C2)N(C)CC3 (racemic) ?
Given back: 2.51

###

Attribute: Ki
- TESTED_SYSTEM: 5-hydroxytryptamine receptor 7 (Homo sapiens)
- ASSAY_REMARKS: biochemical
- Description: Displacement of [3H]-LSD from human 5-HT7A receptor expresssed in stable HEK cell membrane incubated for 90 mins by microbeta counting method
Express your answer in µM, writing the number without its unit.

CCCC(=O)Nc1ccc2c(c1)-c1c(OCC3CC3)c(OC)cc3c1C(C2)N(C)CC3 (racemic) | 0.395

Asked: API: value(readout= Ki, system= 5-hydroxytryptamine receptor 7 (Homo sapiens), query= CCCC(=O)Nc1ccc2c(c1)-c1cccc3c1C(C2)N(CCC)CC3 (racemic) )
Given back: 0.311

Asked: API: value(readout= Ki, system= 5-hydroxytryptamine receptor 7 (Homo sapiens), query= CCCN1CCc2cccc3c2C1Cc1ccc(N(C)C)cc1-3 (racemic) )
Given back: 0.984

Asked: API: value(readout= Ki, system= 5-hydroxytryptamine receptor 7 (Homo sapiens), query= CN1CCc2cccc3c2C1Cc1ccc(NS(C)(=O)=O)cc1-3 (racemic) )
Given back: 0.027

Asked: API: value(readout= Ki, system= 5-hydroxytryptamine receptor 7 (Homo sapiens), query= CN1CCc2cccc3c2C1Cc1ccc2nc(N)sc2c1-3 (racemic) )
Given back: 0.0099

# credit: ChEMBL document CHEMBL4622954
